Test system: SK-MEL-2
EXPERIMENTAL_PROTOCOL: NCI tumour cell line growth inhibition, 48 h
Calls of active or inactive are those of the source. Rule as the data show it: active = GI50 up to about 1.1 µM and inactive = higher.
// values below are reported GI50

Below, each entry is followed by its recorded GI50 result.
INSERT INTO results (compound, observed_result) VALUES
  ('COc1ccc(/C(C)=C2\CCCN(Cc3ccccc3)C2)cc1', '19.1 µM (inactive)'),
  ('CCOC(=O)CC(NC(=O)c1ccc(/N=N/N(C)C)cc1)C(=O)OCC (stereo not drawn)', '> 100 µM (inactive)');

Consider the compound shown here: c1n[nH]cc1C12C3C4C5C3C1C5C42 (stereo not drawn) What is its recorded GI50?
> 100 µM (inactive)

* * *

System: SNB-19
EXPERIMENTAL_PROTOCOL: NCI tumour cell line growth inhibition, 48 h
Active and inactive are the calls of the source. Rule as the data show it: active = GI50 up to about 1.1 µM and inactive = higher.
MEASURED_PARAMETER: GI50

Below, each entry is followed by its recorded GI50 result.
INSERT INTO results (compound, system_under_test, observed_result) VALUES
  ('CCCCCCCSCC1C(=O)C23C(O)C1CCC2C12COC3(O)C(O)C1C(C)(C)CCC2O (stereo not given)', 'SNB-19', '18.9 µM (inactive)'),
  ('N#Cc1c(N)nc2[nH]nc(N)c2c1-c1ccccc1', 'SNB-19', '16.1 µM (inactive)'),
  ('Nc1cc2c3c(c1)Oc1cc(N)cc4c1C3c1c(cc(N)cc1O4)O2', 'SNB-19', '37.5 µM (inactive)'),
  ('CCOc1ccc2c(c1)C(/C(C(Cl)=C(Cl)Cl)=[N+](/[O-])OC(=O)c1ccccc1)=N2', 'SNB-19', '93.1 µM (inactive)'),
  ('O=c1c2c(-c3ccccc3)onc2n(-c2ccccc2)c(=O)n1-c1ccccc1', 'SNB-19', '27.4 µM (inactive)');

What value of GI50 on SNB-19 does O=C1OCCC[C@H]2O[C@@H](COCc3ccccc3)C[C@@H]12 have?
> 100 µM (inactive)

Another: CC12CC(=O)Nc3ccccc3N1C(c1ccccc1)=NO2 (stereo not given)
> 100 µM (inactive)

Another: N#CC(C#N)=CNC(=S)c1ccncc1
41.6 µM (inactive)

Another: CC(C)(C)C(=O)C(C#N)C(=O)C(C)(C)C
> 100 µM (inactive)

Another: COc1cc(C=C(c2ccc(N(C)C)cc2)c2ccc(N(C)C)cc2)c2ccccc2c1OC
> 100 µM (inactive)

Another: O=C(/C=C1\C[C@H]2C=Nc3ccccc3C(=O)N2C1)NCCCNC(=O)/C=C1\C[C@H]2C=Nc3ccccc3C(=O)N2C1
16.4 µM (inactive)

Another: CC(=O)O[C@H]1C(=O)[C@@]2(C)C(C(OC(=O)c3ccccc3)C3[C@@H](O)C(OC(=O)[C@@H](O)[C@H](NC(=O)c4ccccc4)c4ccc(C(F)(F)F)cc4)C(C)=C1C3(C)C)[C@]1(OC(C)=O)CO[C@@H]1C[C@@H]2O (stereo not given in full)
> 25 µM (inactive)

Another: NCCC(N)C(=O)O (stereo not given)
> 100 µM (inactive)

Another: N#Cc1c2c(c(Nc3ccc(Cl)cc3)n3c1nc1ccccc13)CCCC2
23.1 µM (inactive)

Another: O=c1c2ccccc2nc2n1NC(c1c(Cl)cccc1Cl)N2c1cccc(Cl)c1 (stereo not given)
4.43 µM (inactive)

Another: COc1ccc(OC)c(CC(=O)c2ccc(O)c(C(=O)NCCc3ccc(F)cc3)c2)c1
3.79 µM (inactive)
